# experimental system: JAK3 (Homo sapiens)
# Construct: PV3855
# Sequence (P52333 1-1124): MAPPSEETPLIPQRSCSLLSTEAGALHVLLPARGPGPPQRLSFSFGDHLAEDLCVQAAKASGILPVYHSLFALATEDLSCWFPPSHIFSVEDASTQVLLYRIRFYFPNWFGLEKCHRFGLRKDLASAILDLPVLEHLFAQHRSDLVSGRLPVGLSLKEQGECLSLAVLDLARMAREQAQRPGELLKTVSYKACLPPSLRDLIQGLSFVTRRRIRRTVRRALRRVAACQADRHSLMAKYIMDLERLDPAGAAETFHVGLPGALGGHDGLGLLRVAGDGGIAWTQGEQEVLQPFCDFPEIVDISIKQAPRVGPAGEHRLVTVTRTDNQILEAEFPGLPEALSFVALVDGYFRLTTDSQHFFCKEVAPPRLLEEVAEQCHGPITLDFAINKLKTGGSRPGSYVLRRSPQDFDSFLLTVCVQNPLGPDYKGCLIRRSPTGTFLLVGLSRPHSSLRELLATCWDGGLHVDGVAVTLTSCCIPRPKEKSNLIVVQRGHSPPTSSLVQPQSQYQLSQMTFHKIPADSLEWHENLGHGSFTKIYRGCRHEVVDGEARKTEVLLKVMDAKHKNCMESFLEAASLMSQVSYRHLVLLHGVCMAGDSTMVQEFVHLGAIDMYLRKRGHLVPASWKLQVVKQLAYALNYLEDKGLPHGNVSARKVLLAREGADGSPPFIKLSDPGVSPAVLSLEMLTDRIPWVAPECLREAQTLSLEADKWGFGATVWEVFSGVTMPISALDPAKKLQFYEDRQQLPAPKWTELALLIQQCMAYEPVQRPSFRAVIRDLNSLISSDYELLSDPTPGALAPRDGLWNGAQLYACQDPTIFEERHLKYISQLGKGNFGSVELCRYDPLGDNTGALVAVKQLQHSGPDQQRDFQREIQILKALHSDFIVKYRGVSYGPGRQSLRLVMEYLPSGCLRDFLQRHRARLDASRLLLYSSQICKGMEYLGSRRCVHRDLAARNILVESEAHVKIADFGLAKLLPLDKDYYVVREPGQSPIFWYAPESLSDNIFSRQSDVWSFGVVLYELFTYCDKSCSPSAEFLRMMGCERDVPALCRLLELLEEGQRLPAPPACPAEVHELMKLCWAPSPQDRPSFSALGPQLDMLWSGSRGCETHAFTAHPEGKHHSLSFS
# test protocol: JAK enzymatic assay (peptide mobility shift), JAK3
# measurement parameters: recombinant JAK3 1 nM, ATP 4 μM, 1 μM JAKtide peptide, 90 minutes

| molecule | unit abbrev | IC50 |
| --- | --- | --- |
| CN(CCO)S(=O)(=O)C[C@H]1CC[C@H](N(C)c2ncnc3[nH]ccc23)CC1 | nM | 332 |
| CN(c1ncnc2[nH]ccc12)[C@H]1CC[C@H](CS(=O)(=O)NCCC(F)=C(F)F)CC1 | nM | 267 |
| CN(c1ncnc2[nH]ccc12)[C@H]1CC[C@H](CS(=O)(=O)NCCc2ccc(Cl)c(Cl)c2)CC1 | nM | 427 |
| Cc1cc2cc(CNS(=O)(=O)C[C@H]3CC[C@H](N(C)c4ncnc5[nH]ccc45)CC3)ccc2[nH]1 | nM | 224 |
| CN(c1ncnc2[nH]ccc12)[C@H]1CC[C@H](CS(=O)(=O)N[C@H]2C[C@@H]2c2ccccc2)CC1 | nM | 144 |
| CN(c1ncnc2[nH]ccc12)[C@H]1CC[C@H](CS(=O)(=O)NC2CC(NC(=O)OC(C)(C)C)C2)CC1 (stereo partly shown) | nM | 292 |
| CN(c1ncnc2[nH]ccc12)[C@H]1CC[C@H](CS(=O)(=O)NCC(F)(F)c2ccccc2)CC1 | nM | 101 |

---

# experimental system: JAK3 (Homo sapiens)
# Construct: PV3855
# test protocol: JAK enzymatic assay (peptide mobility shift), JAK3
# measurement parameters: recombinant JAK3 1 nM, ATP 4 μM, 1 μM JAKtide peptide, 90 minutes
Just a reminder that ties go to Condition not met: only IC50 strictly below 200 nM counts as Condition met.

| compound | cat |
| --- | --- |
| CN(c1ncnc2[nH]ccc12)[C@H]1CC[C@H](CS(=O)(=O)Nc2ccn[nH]2)CC1 | Condition not met |
| Cc1cccc(CCNS(=O)(=O)C[C@H]2CC[C@H](N(C)c3ncnc4[nH]ccc34)CC2)n1 | Condition not met |
| COc1ccc(CNS(=O)(=O)C[C@H]2CC[C@H](N(C)c3ncnc4[nH]ccc34)CC2)cc1 | Condition met |
| CN(c1ncnc2[nH]ccc12)[C@H]1CC[C@H](CS(=O)(=O)Nc2ccc3[nH]ncc3c2)CC1 | Condition met |
| CN(c1ncnc2[nH]ccc12)[C@H]1CC[C@H](CS(=O)(=O)Nc2ccc(Cl)nc2)CC1 | Condition not met |
| Cc1nn(C)cc1CNS(=O)(=O)C[C@H]1CC[C@H](N(C)c2ncnc3[nH]ccc23)CC1 | Condition not met |
| CN(c1ncnc2[nH]ccc12)[C@H]1CC[C@H](CS(=O)(=O)NCC(C)(F)c2ccc(F)cc2)CC1 (stereo partly shown) | Condition not met |

---

# experimental system: JAK3 (Homo sapiens, UniProt P52333)
# Construct: PV3855
# test protocol: JAK enzymatic assay (peptide mobility shift), JAK3
# measurement parameters: recombinant JAK3 1 nM, ATP 4 μM, 1 μM JAKtide peptide, 90 minutes
Readings of IC50 for the listed compounds

| entry smiles | IC50 |
| --- | --- |
| CN(c1ncnc2[nH]ccc12)[C@H]1CC[C@@H](CS(=O)(=O)NCC2CC2)CC1 | 201 nM |
| CN(c1ncnc2[nH]ccc12)[C@H]1CC[C@H](CS(=O)(=O)Nc2ccc(CC#N)cc2)CC1 | 96.1 nM |
| Cc1cc(C)nc(CNS(=O)(=O)C[C@H]2CC[C@H](N(C)c3ncnc4[nH]ccc34)CC2)n1 | 237 nM |
| Cc1ccc(NS(=O)(=O)C[C@H]2CC[C@H](N(C)c3ncnc4[nH]ccc34)CC2)cn1 | 221 nM |

---

Readings of IC50 for the listed molecules
# experimental system: JAK3 (Homo sapiens, UniProt P52333)
# Construct: PV3855
# Sequence (P52333 1-1124): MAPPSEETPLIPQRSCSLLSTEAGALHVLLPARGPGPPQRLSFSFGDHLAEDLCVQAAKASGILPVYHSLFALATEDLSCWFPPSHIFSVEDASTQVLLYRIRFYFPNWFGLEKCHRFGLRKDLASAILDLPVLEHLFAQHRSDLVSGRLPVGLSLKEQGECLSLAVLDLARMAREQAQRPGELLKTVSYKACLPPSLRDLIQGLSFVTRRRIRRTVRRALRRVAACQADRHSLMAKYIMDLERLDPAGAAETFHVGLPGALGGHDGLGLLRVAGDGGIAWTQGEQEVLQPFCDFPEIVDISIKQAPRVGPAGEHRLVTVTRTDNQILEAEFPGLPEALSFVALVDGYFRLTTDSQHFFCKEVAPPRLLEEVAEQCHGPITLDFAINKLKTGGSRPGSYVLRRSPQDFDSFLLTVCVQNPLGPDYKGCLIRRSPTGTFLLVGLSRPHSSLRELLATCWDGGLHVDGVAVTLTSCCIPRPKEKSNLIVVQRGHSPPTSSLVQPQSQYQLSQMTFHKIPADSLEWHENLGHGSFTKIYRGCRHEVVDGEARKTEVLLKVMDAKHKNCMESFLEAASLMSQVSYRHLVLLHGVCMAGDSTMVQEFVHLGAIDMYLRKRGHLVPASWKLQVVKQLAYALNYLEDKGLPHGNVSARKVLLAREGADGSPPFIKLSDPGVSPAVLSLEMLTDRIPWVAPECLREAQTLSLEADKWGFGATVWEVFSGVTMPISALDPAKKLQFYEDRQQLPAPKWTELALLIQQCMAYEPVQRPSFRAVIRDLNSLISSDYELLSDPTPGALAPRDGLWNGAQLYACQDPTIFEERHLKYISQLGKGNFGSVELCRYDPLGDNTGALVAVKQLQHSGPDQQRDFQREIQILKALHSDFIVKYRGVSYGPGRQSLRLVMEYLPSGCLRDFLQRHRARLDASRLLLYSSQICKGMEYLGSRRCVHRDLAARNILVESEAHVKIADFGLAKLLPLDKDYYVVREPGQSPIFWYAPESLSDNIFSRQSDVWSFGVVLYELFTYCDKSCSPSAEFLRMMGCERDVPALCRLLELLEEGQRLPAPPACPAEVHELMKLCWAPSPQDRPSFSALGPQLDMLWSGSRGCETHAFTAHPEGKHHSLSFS
# test protocol: JAK enzymatic assay (peptide mobility shift), JAK3
# measurement parameters: recombinant JAK3 1 nM, ATP 4 μM, 1 μM JAKtide peptide, 90 minutes
measured attribute: IC50 (nM)

| entry smiles | measured attribute | unit abbrev | obs value |
| --- | --- | --- | --- |
| CN(c1ncnc2[nH]ccc12)[C@H]1CC[C@H](CS(=O)(=O)Nc2ccc3c(c2)OCCCO3)CC1 | IC50 | nM | 54.3 |
| COc1ccc(CNS(=O)(=O)C[C@H]2CC[C@@H](N(C)c3ncnc4[nH]ccc34)CC2)cc1 | IC50 | nM | 114 |
| Cc1ccc(CCNS(=O)(=O)C[C@H]2CC[C@H](N(C)c3ncnc4[nH]ccc34)CC2)cc1 | IC50 | nM | 137 |
| CN(c1ncnc2[nH]ccc12)[C@H]1CC[C@H](CS(=O)(=O)NCCc2ccc(C(F)(F)F)cc2)CC1 | IC50 | nM | 511 |
| CN(Cc1cnccn1)S(=O)(=O)C[C@H]1CC[C@H](N(C)c2ncnc3[nH]ccc23)CC1 | IC50 | nM | 517 |
| CN(c1ncnc2[nH]ccc12)[C@H]1CC[C@H](CS(=O)(=O)Nc2ccc(C#N)cc2)CC1 | IC50 | nM | 140 |
| CN(c1ncnc2[nH]ccc12)[C@H]1CC[C@H](CS(=O)(=O)NC2CC2)CC1 | IC50 | nM | 224 |

// data source = patent US8372854B2
